# Tested on: Escherichia coli
# experimentalDetails: Escherichia coli DNA cleavage endpoint value which is the minimum amount required (in micro g/mL) to induce detectable cleavage of supercoiled pBR322 substrate to linear form (gyrase)
# Format: functional
# cond: read-out: MIC
assayReadout: minimum concentration inducing gyrase-mediated DNA cleavage (µg/mL)
Kindly answer with a numeric value in µg/mL, unit omitted.

Examples with their reported minimum concentration inducing gyrase-mediated DNA cleavage follow.
>>> endpointresult("CN1C2CC[C@@H]1CCN(c1cc3c(cc1F)c(=O)c(C(=O)O)cn3CCF)C2")
3.12
>>> endpointresult("CN1C2CC[C@@H]1CCN(c1c(F)cc3c(=O)c(C(=O)O)cn(C4CC4)c3c1F)C2")
0.39
>>> endpointresult("O=C(O)c1cn(-c2ccc(F)cc2)c2cc(N3CCN4CCCC3C4)c(F)cc2c1=O (stereo unspecified)")
0.78
>>> endpointresult("CCn1cc(C(=O)O)c(=O)c2cc(F)c(N3C[C@H]4CC[C@@H](C3)N4C)cc21")
3.12

Ask: Query: minimum concentration inducing gyrase-mediated DNA cleavage; subject: CCn1cc(C(=O)O)c(=O)c2cc(F)c(N3CCN4CCCC3C4)cc21 (stereo unspecified)
Reply: 3.12

Ask: Another: Cl.O.O=C(O)c1cn(-c2ccc(F)cc2)c2cc(N3CCN4CCC3CC4)c(F)cc2c1=O
Reply: 0.78

---

# System: Bordetella bronchiseptica
# experimentalDetails: In vitro antibacterial activity against aerobically grown Bordetella bronchiseptica (73A009)
# Type: functional
Below: a set of entries, each annotated with reported MIC.
Reply numerically in µg/mL, unit not repeated.

>>> endpointresult("CN1[C@@H]2CCC[C@H]1CN(c1cc3c(cc1F)c(=O)c(C(=O)O)cn3C1CC1)C2.Cl")
1.56
>>> endpointresult("CN1C[C@@H]2C[C@H]1CN2c1cc2c(cc1F)c(=O)c(C(=O)O)cn2-c1ccc(F)cc1F")
1.56
>>> endpointresult("CNn1cc(C(=O)O)c(=O)c2cc(F)c(N3CCN4CCC3CC4)cc21")
12.5
>>> endpointresult("CCn1cc(C(=O)O)c(=O)c2cc(F)c(N3C[C@H]4CC[C@@H](C3)N4C)c(F)c21")
12.5
>>> endpointresult("CN1[C@@H]2CC[C@H]1CN(c1cc3c(cc1F)c(=O)c(C(=O)O)cn3CCF)C2.Cl.O")
3.13

Ask: Quick one: MIC of C=Cn1cc(C(=O)O)c(=O)c2cc(F)c(N3C[C@H]4CC[C@@H](C3)N4C)cc21 ?
Reply: 12.5

Ask: Now the same for O=C(O)c1cn(C2CC2)c2c(Cl)c(N3C[C@@H]4C[C@H]3CN4)c(F)cc2c1=O
Reply: 0.39

---

# Test system: Bordetella bronchiseptica
# experimentalDetails: In vitro antibacterial activity against aerobically grown Bordetella bronchiseptica (73A009)
# Assay type: functional
assayReadout: MIC

>>> endpointresult("O=C(O)c1cn(-c2ccc(F)cc2)c2c(F)c(N3C[C@@H]4C[C@H]3CN4)c(F)cc2c1=O")
"> 1.56 µg/mL"
>>> endpointresult("CCn1cc(C(=O)O)c(=O)c2cc(F)c(N3C[C@H]4CC[C@@H](C3)N4C)cc21")
"> 1.56 µg/mL"
>>> endpointresult("CN1C2CC[C@@H]1CCN(c1cc3c(cc1F)c(=O)c(C(=O)O)cn3-c1ccc(F)cc1)C2")
"> 1.56 µg/mL"

Ask: Look up MIC with Bordetella bronchiseptica for this compound: CN1[C@@H]2CC[C@H]1CN(c1cc3c(cc1F)c(=O)c(C(=O)O)cn3-c1ccc(F)cc1)C2.Cl.O
Reply: > 1.56 µg/mL

Ask: Then this compound: CCn1cc(C(=O)O)c(=O)c2cc(F)c(N3CCN4CCCC3C4)cc21 (stereo not drawn)
Reply: > 1.56 µg/mL

Ask: Then what about the compound O=C(O)c1cn(-c2ccc(F)cc2)c2cc(N3C[C@@H]4C[C@H]3CN4)c(F)cc2c1=O ?
Reply: > 1.56 µg/mL

Ask: Repeat with CN1C[C@@H]2C[C@H]1CN2c1cc2c(cc1F)c(=O)c(C(=O)O)cn2C1CC1 [DANOFLOXACIN]
Reply: 0.78 µg/mL

Ask: Please answer likewise for CN1C[C@@H]2C[C@H]1CN2c1nc2c(cc1F)c(=O)c(C(=O)O)cn2-c1ccc(F)cc1
Reply: > 1.56 µg/mL

Ask: Again, but for CCn1cc(C(=O)O)c(=O)c2cc(F)c(N3C[C@@H]4C[C@H]3CN4)cc21
Reply: 1.56 µg/mL

Ask: // same read-out, input: CCn1cc(C(=O)O)c(=O)c2cc(F)c(N3CCNCC3)cc21 [NORFLOXACIN]
Reply: 6.25 µg/mL

Ask: Then C=Cn1cc(C(=O)O)c(=O)c2cc(F)c(N3CCN4CCC3CC4)cc21 ?
Reply: 1.56 µg/mL

Ask: Do the same for Cl.O.O=C(O)c1cn(CCF)c2cc(N3CCN4CCC3CC4)c(F)cc2c1=O please
Reply: 1.56 µg/mL

Ask: Would you mind doing CCn1cc(C(=O)O)c(=O)c2cc(F)c(N3CCN4CCC3CC4)cc21 [BINFLOXACIN] as well?
Reply: 1.56 µg/mL

Ask: Also, CN1[C@@H]2CC[C@H]1CN(c1cc3c(cc1F)c(=O)c(C(=O)O)cn3C)C2 please.
Reply: > 25 µg/mL

Ask: Let us now turn to CN1C2CC[C@@H]1CCN(c1c(F)cc3c(=O)c(C(=O)O)cn(C4CC4)c3c1F)C2
Reply: > 1.56 µg/mL

Ask: How about CCn1cc(C(=O)O)c(=O)c2cc(F)c(N3C[C@H]4CCC[C@@H](C3)N4C)cc21 ?
Reply: 6.25 µg/mL

Ask: Moving on to the next compound: O=C(O)c1cn(C2CC2)c2c(F)c(N3CCN4CCC3CC4)c(F)cc2c1=O
Reply: 0.39 µg/mL

Ask: Please give the result for CCn1cc(C(=O)O)c(=O)c2cc(F)c(N3CC[C@H]4CCC(C3)N4C)cc21 too.
Reply: > 1.56 µg/mL
